# credit: patent US9833497B2

# System: Aeromonas hydrophila
# protocol-details: MIC against Gram-negative bacteria: Aeromonas hydrophila
# Type: cell-based
# condition-context: 96-well plate, 5×10^5 CFU/mL, 37° C., 10 h
# Experimental: 1. Gram-negative bacteria, such as E. coli BL21, Pseudomonas aeruginosa, Klebsiella pneumonia, Enterobacter cloacae, Aeromonas hydrophila, Citrobacter diversus, Moraxella catarrhalis, Proteus mirabilis, Proteus vulgaris, Serratia marcescens, etc were streaked on solid LB medium and cultured respectively. Then, typical clones were picked, inoculated into common liquid LB medium respectively, and cultured at 37° C. with shaking at 185 rpm until the McFarland specific turbidity was 0.5. […]
# MIC A. hydrophila per entry
Write it as a number; the unit µg/mL goes unstated.

These solved cases illustrate the format of a correct answer.
>>> assay_result("PRT671 (RVVVCPLPCMNGGQCSSRNQCLCPPDFTGRFCQ; listed as Homo sapiens)")
25
>>> assay_result("PRT662 (RIYFCQIPCLNGGRCIGRDECWCPANSTGKFCH; listed as Homo sapiens)")
12.5
>>> assay_result("PRT709 (SCQLCDGYCYNGGTCQLDPETNVPVCLCSTNWSGTQCE; listed as Homo sapiens)")
50
>>> assay_result("PRT653 (DVDECEDPQSSCLGGECKNTVGSYQCLCPQGFQLANGTVCE; listed as Homo sapiens)")
12.5

Query :: GET /values?readout=MIC A. hydrophila&item= PRT632 (CKCHPLGSQEDQCHPKTGQCTCRPGVTGQACDRCQLGFFGFSIKGCRA; listed as Homo sapiens)
Result :: 25

Query :: Record: PRT676 (DINECAMPGVCRHGDCLNNPGSYRCVCPPGHSLGPSRTQCI; listed as Homo sapiens)
Result :: 12.5

Query :: Record: PRT658 (DVNECELMLAVCGAALCENVEGSFLCLCASDLEEYDAQEGHCR; listed as Homo sapiens)
Result :: 25

Query :: Record: PRT674 (DVDECQDPAACRPGRCVNLPGSYRCECRPPWVPGPSGRDCQ; listed as Homo sapiens)
Result :: 50

Query :: Record: PRT693 (SSGMCQRNPQVCGPGRCISRPSGYTCACDSGFRLSPQGTRCI; listed as Homo sapiens)
Result :: 25

###

# System: Proteus mirabilis
# protocol-details: MIC against Gram-negative bacteria: Proteus mirabilis
# Format: cell-based
# condition-context: P. mirabilis; 10 h cultivation at 37° C.; 5×10^5 CFU/mL
outcome-measure: MIC (μg/mL) P. mirabilis (µg/mL)
Write it as a number; the unit µg/mL goes unstated.

These solved cases illustrate the format of a correct answer.
>>> assay_result("PRT154 (DVDECSLAEKTCVRKNENCYNTPGSYVCVCPDGFEETEDACV; listed as Homo sapiens)")
25
>>> assay_result("PRT753 (RKDVCKSTHHGCEHICVNNGNSYICKCSEGFVLAEDGRRCK; listed as Homo sapiens)")
12.5

Query :: GET /values?readout=MIC (μg/mL) P. mirabilis&item= PRT786 (YGKDCALICQCQNGADCDHISGQCTCRTGFMGRHCE; listed as Homo sapiens)
Result :: 25

Query :: Record: PRT764 (AQDKCALGTHGCQHICVNDRTGSHHCECYEGYTLNADKKTCS; listed as Homo sapiens)
Result :: 25

Query :: Record: PRT165 (DVRACSSAPCANNGTCVSLDDGLYECSCAPGYSGKDCQ; listed as Homo sapiens)
Result :: 12.5

Query :: Record: PRT873 (CECYGHSNRCSYIDFLNVVTCVSCKHNTRGQHCQHCRLGYYRNGSAELDDENVCIE; listed as Homo sapiens)
Result :: 25

Query :: Record: PRT794 (SSRCGCKNDAVCSPVDGSCTCKAGWHGVDCS; listed as Homo sapiens)
Result :: 25

Query :: Record: PRT791 (SQECQCHNGGTCDAATGQCHCSPGYTGERCQ; listed as Homo sapiens)
Result :: 25

###

# Test system: Citrobacter diversus
# protocol-details: MIC against Gram-negative bacteria: Citrobacter diversus
# Assay type: cell-based
# condition-context: C. diversus; 10 h cultivation at 37° C.
# MIC per entry
Write it as a number; the unit µg/mL goes unstated.

>>> assay_result("PRT898 (NNNECESNPCVNGGTCKDMTSGYVCTCREGFSGPNCQ; listed as Homo sapiens)")
12.5

Query :: GET /values?readout=MIC&item= PRT967 (ARDACESQPCRAGGTCSSDGMGFHCTCPPGVQGRQCE; listed as Homo sapiens)
Result :: 12.5

Query :: Record: PRT947 (NIDDCARGPHCLNGGQCMDRIGGYSCRCLPGFAGERCE; listed as Homo sapiens)
Result :: 25

Query :: Record: PRT932 (QVNECLSNPCIHGNCTGGLSGYKCLCDAGWVGINCE; listed as Homo sapiens)
Result :: 25

###

# Test system: Citrobacter diversus
# protocol-details: MIC against Gram-negative bacteria: Citrobacter diversus
# Assay type: cell-based
# condition-context: C. diversus; 10 h cultivation at 37° C.; 5×10^5 CFU/mL
outcome-measure: MIC (μg/mL) C. diversus
Numeric answer plus unit only.

>>> assay_result("PRT770 (FRDPCDPNPCQNDGICVNVKGMASCRCISGHAFFYTGERCQ; listed as Homo sapiens)")
"12.5 µg/mL"
>>> assay_result("PRT747 (DIDECKDPDACSQICVNYKGYFKCECYPGYEMDLLTKNCK; listed as Homo sapiens)")
"50 µg/mL"
>>> assay_result("PRT216 (DIDECTAGTHNCRADQVCINLRGSFACQCPPGYQKRGEQCV; listed as Homo sapiens)")
"12.5 µg/mL"
>>> assay_result("PRT830 (CALGNGGCQHHCVQLTITRHRCQCRPGFQLQEDGRHC; listed as Homo sapiens)")
"25 µg/mL"
>>> assay_result("PRT152 (LPCPGGTERPCGGYGQCEGEGTRGGSGHCDCQAGYGGEACG; listed as Homo sapiens)")
"25 µg/mL"

Query :: GET /values?readout=MIC (μg/mL) C. diversus&item= PRT764 (AQDKCALGTHGCQHICVNDRTGSHHCECYEGYTLNADKKTCS; listed as Homo sapiens)
Result :: 50 µg/mL

Query :: Record: PRT263 (CSKNNGGCSPYATCKSTGDGQRTCTCDTAHTVGDGLTC; listed as Homo sapiens)
Result :: 12.5 µg/mL

Query :: Record: PRT243 (DVNECGMKPRPCQHRCVNTHGSYKCFCLSGHMLMPDATCV; listed as Homo sapiens)
Result :: 12.5 µg/mL

###

# Test system: Aeromonas hydrophila
# protocol-details: MIC against Gram-negative bacteria: Aeromonas hydrophila
# Type: cell-based
# condition-context: A. hydrophila; 10 h cultivation at 37° C.; 5×10^5 CFU/mL
outcome-measure: MIC (μg/mL) A. hydrophila (µg/mL)
Write it as a number; the unit µg/mL goes unstated.

Query :: GET /values?readout=MIC (μg/mL) A. hydrophila&item= PRT794 (SSRCGCKNDAVCSPVDGSCTCKAGWHGVDCS; listed as Homo sapiens)
Result :: 50

Query :: Record: PRT762 (ALDPCVLGTHQCQHVCISDGEGKHHCECSQGYTLNADKKTCS; listed as Homo sapiens)
Result :: 12.5

Query :: Record: PRT265 (CQDGHGGCSEHANCSQVGTMVTCTCLPDYEGDGWSC; listed as Homo sapiens)
Result :: 12.5

Query :: Record: PRT755 (AVDYCASENHGCEHECVNADGSYLCQCHEGFALNPDKKTCT; listed as Homo sapiens)
Result :: 50

Query :: Record: PRT166 (NGSPCQHGGTCVDDEGRASHASCLCPPGFSGNFCE; listed as Homo sapiens)
Result :: 12.5

Query :: Record: PRT773 (PSNPCQDDPCADNSLCVKLHNTSFCLCLEGYYYNSSTCK; listed as Homo sapiens)
Result :: 50

Query :: Record: PRT808 (YGPNCSSICSCNNGGTCSPVDGSCTCKEGWQGLDCT; listed as Homo sapiens)
Result :: 12.5

Query :: Record: PRT772 (TIVSTESLETLAPGLCQEGQIWNGKQCVCPQGYVGYQCL; listed as Homo sapiens)
Result :: 50

Query :: Record: PRT751 (LCATGDHDCEQVCISSPGSYTCACHEGFTLNSDGKTCN; listed as Homo sapiens)
Result :: 25

Query :: Record: PRT806 (FGFQCSQHCDCHNGGQCSPTTGACECEPGYKGPRCQ; listed as Homo sapiens)
Result :: 12.5

Query :: Record: PRT765 (VRDKCALGSHGCQHICVSDGAASYHCDCYPGYTLNEDKKTCS; listed as Homo sapiens)
Result :: 12.5

###

# Test system: Enterobacter cloacae
# protocol-details: MIC against Gram-negative bacteria: Enterobacter cloacae
# Format: cell-based
# condition-context: E. cloacae; 10 h cultivation at 37° C.; 5×10^5 CFU/mL
# MIC (μg/mL) E. cloacae per entry
Write it as a number; the unit µg/mL goes unstated.

Query :: GET /values?readout=MIC (μg/mL) E. cloacae&item= PRT259 (GGCHTDALCSYVGPGQSRCTCKLGFAGDGYQC; listed as Homo sapiens)
Result :: 50

Query :: Record: PRT820 (YGDNCRHSCLCQNGGTCDPVSGHCACPEGWAGLACE; listed as Homo sapiens)
Result :: 12.5

Query :: Record: PRT205 (SAHVCSQQCSGHGVCDSRNKCHCSPGYKPPNCQ; listed as Homo sapiens)
Result :: 12.5

Query :: Record: PRT835 (DVDECASSRGGCEHHCTNLAGSFQCSCEAGYRLHEDRRGCS; listed as Homo sapiens)
Result :: 50
